Tested on: LXFL 529
procedureDetails: NCI tumour cell line growth inhibition, 48 h
Active and inactive are the calls of the source. Rule as the data show it: active = GI50 up to about 1.1 µM and inactive = higher.
experimentalReadout: GI50

- compound: "CC(=O)NC(C=O)C(O[C@H](C)C(=O)NC(C)C(=O)NC(CCC(N)=O)C(=O)OCc1ccccc1)C(O)C(O)COC(=O)CCNc1c2ccccc2nc2cccc([N+](=O)[O-])c12 (stereo partly specified)"
  experimentalReadout: "GI50"
  reported: "1.79 µM (inactive)"
- compound: "CC(/C(=N\\Nc1ccccc1)c1ccc(O)cc1)C1C(=O)Oc2ccccc21 (stereo unspecified)"
  experimentalReadout: "GI50"
  reported: "> 100 µM (inactive)"
- compound: "O=C(CN(c1ccccc1)c1ccccc1)N1c2ccccc2C2C=CC=CC21 (stereo unspecified)"
  experimentalReadout: "GI50"
  reported: "16 µM (inactive)"
- compound: "O=C1CC(c2ccc(Cl)cc2)=Nc2ccccc2N1"
  experimentalReadout: "GI50"
  reported: "> 100 µM (inactive)"
- compound: "C[N+]1=C(c2cccnc2/C=N/O)OCC1(C)C"
  experimentalReadout: "GI50"
  reported: "> 100 µM (inactive)"
- compound: "CN1Cc2c(nc(-c3ccc(Br)cc3)c[n+]2[O-])N(C)C1"
  experimentalReadout: "GI50"
  reported: "> 100 µM (inactive)"
- compound: "COc1ccc2nc3cc(Cl)ccc3c(Sc3ccc(NC(C)=O)cc3)c2c1"
  experimentalReadout: "GI50"
  reported: "7.31 µM (inactive)"
- compound: "CN(C)CCCNC(=O)c1cccc2ccccc12"
  experimentalReadout: "GI50"
  reported: "> 100 µM (inactive)"
- compound: "CC(=O)OC1COC(N2C(=O)C(=O)c3cc(Br)ccc32)C(OC(C)=O)C1OC(C)=O (stereo unspecified)"
  experimentalReadout: "GI50"
  reported: "> 100 µM (inactive)"
- compound: "COC(=O)C1CCc2c(OC)ccc(OC)c2C1=O (stereo unspecified)"
  experimentalReadout: "GI50"
  reported: "> 100 µM (inactive)"
- compound: "NC(=O)c1ccc(Cl)c([N+](=O)[O-])c1"
  experimentalReadout: "GI50"
  reported: "> 100 µM (inactive)"

====

Recorded GI50 for the following compounds
Tested on: T47D
procedureDetails: NCI tumour cell line growth inhibition, 48 h
Activity calls are given as the source filed them. No stated cut-off is given here; in the data, active = GI50 up to about 1.1 µM and inactive = higher.

- compound: "CC(C)C/N=C(\\N)N=C(N)N"
  GI50: "> 100 µM (inactive)"
- compound: "NCCP(=O)(O)O"
  GI50: "> 100 µM (inactive)"
- compound: "COc1ccc2c(c1)OCC1Cc3cc4c(cc3OC21)OCO4 (configuration not stated)"
  GI50: "32.1 µM (inactive)"
- compound: "COCc1nc2c(OC)c(-c3nc4ccc(N5CCN(C)CC5)nc4[nH]3)cc(OC)c2[nH]1"
  GI50: "53 µM (inactive)"
- compound: "CC(C)OP(=O)(OC(C)C)/C(C#N)=C/c1c[nH]c2ccccc12"
  GI50: "49.8 µM (inactive)"
- compound: "CC/C(=N/O)c1ccc(Br)s1"
  GI50: "70 µM (inactive)"
- compound: "Cc1cc(OCc2nnc3n2N=C(c2cc(F)c(Cl)cc2Cl)/C(=C/c2ccc(-c4ccc(Cl)cc4)o2)S3)ccc1Cl"
  GI50: "7.93 µM (inactive)"
- compound: "CC12CCC(C(Nc3ccccn3)C1=O)C2(C)C (configuration not stated)"
  GI50: "> 100 µM (inactive)"
- compound: "CN(C)CCNC(=O)Cn1ccc(=O)c2cc([N+](=O)[O-])ccc21"
  GI50: "> 100 µM (inactive)"
- compound: "COc1ccc(Nc2nc3ccccc3nc2-c2cccs2)cc1OC"
  GI50: "> 10 µM (inactive)"
- compound: "Cc1cc(-c2c(Br)cc(C(=O)O)n2C)on1"
  GI50: "> 100 µM (inactive)"
- compound: "N[C@@H](CCC(=O)NC(Cc1ccccc1)C(=O)NCP(=O)(O)O)C(=O)O (some centres not stated)"
  GI50: "> 100 µM (inactive)"

====

Recorded GI50 for the following compounds
Tested on: SN12C
procedureDetails: NCI tumour cell line growth inhibition, 48 h
Active and inactive are the calls of the source. No stated cut-off is given here; in the data, active = GI50 up to about 1.1 µM and inactive = higher. Where a SMILES comes first, the peptide text is derived from it. Non-standard residues stand in square brackets, D forms with d. Residues, ends and D or L forms follow the SMILES beside them. [ ]: non-standard residue; d: D form. The star is where a group is joined. *: point of attachment. Bn2Val = CC(C)[C@@H](C(=O)*)N(Cc1ccccc1)Cc1ccccc1; Phe(4-NO2) = N[CH](Cc1ccc([N+](=O)[O-])cc1)C(=O)O; NH(4-Cl-benzyl) = Clc1ccc(CN*)cc1; NMeV = CN[C@H](C(=O)O)C(C)C; dNMeA = CN[C@H](C)C(=O)O; Boc = CC(C)(C)OC(=O)*; OBn = c1ccc(CO*)cc1

- compound: "O=C(CC(=O)N1N=C(c2ccccc2)C(/N=N/c2ccc(Cl)cc2)C1=O)Nc1ccccc1Cl (stereo not given)"
  targetSystem: "SN12C"
  GI50: "92 µM (inactive)"
- compound: "CCCCOCCOCCOC1=CC(=O)c2c(O)ccc(O)c2C1=O"
  targetSystem: "SN12C"
  GI50: "1.82 µM (inactive)"
- compound: "Cc1nn(C(=O)c2ccc(Cl)cc2)c2c1C(/C=C/c1ccccc1)SC(=N)N2 (stereo not given)"
  targetSystem: "SN12C"
  GI50: "> 10 µM (inactive)"
- compound: "COC1(OC)CCCCC2c3cccc(OC(C)=O)c3C21OC(C)=O (stereo not given)"
  targetSystem: "SN12C"
  GI50: "> 100 µM (inactive)"
- compound: "O=S(=O)(O)SC/C=C\\CSS(=O)(=O)O"
  targetSystem: "SN12C"
  GI50: "> 100 µM (inactive)"
- compound: "COC(=O)c1c/c(=N\\NC(=O)CC(=O)Nc2ccccc2OC)c2ccccc2o1"
  targetSystem: "SN12C"
  GI50: "> 100 µM (inactive)"
- compound: "COc1ccc(CCC2c3cc(OC)c(OC)cc3CCN2C)cc1OC (stereo not given)"
  targetSystem: "SN12C"
  GI50: "> 100 µM (inactive)"
- compound: "COc1cccc2c1OCC1Cc3ccccc3OC21 (stereo not given)"
  targetSystem: "SN12C"
  GI50: "27.7 µM (inactive)"
- compound: "CN(C)CCNC(=O)Cn1ccc(=O)c2cc([N+](=O)[O-])ccc21"
  targetSystem: "SN12C"
  GI50: "> 100 µM (inactive)"
- compound: "CCOC(=O)CCC(NC(=O)c1ccc(/N=C/c2nc3cc(C(F)(F)F)ccc3nc2-c2ccccc2)cc1)C(=O)OCC (stereo not given)"
  targetSystem: "SN12C"
  GI50: "> 50 µM (inactive)"
- compound: "COC(=O)N1CC[C@@H]2CCC=C(c3cccc4c3OCO4)[C@@H]21"
  targetSystem: "SN12C"
  GI50: "> 100 µM (inactive)"
- compound: "CNC1=C(C)C(=O)C(O)=C([C@H](C)CCC=C(C)C)C1=O"
  targetSystem: "SN12C"
  GI50: "22.8 µM (inactive)"
- compound: "OC1(c2ccccc2)CC2CCC(C1)N2CCCC1(c2ccc(F)cc2)OCCO1 (stereo not given)"
  targetSystem: "SN12C"
  GI50: "> 100 µM (inactive)"
- compound: "Cn1nc2c(c1N)Cc1c(nn(C)c1N)-c1ccccc1-2"
  targetSystem: "SN12C"
  GI50: "> 100 µM (inactive)"
- compound: "COC(=O)CCC(NC(=O)OC(C)(C)C)C(=O)NC(Cc1ccc([N+](=O)[O-])cc1)C(=O)NCC(=O)OCc1ccccc1 (stereo not given) (Boc-Glu(OMe)-[Phe(4-NO2)]-Gly-OBn; configuration not given here)"
  targetSystem: "SN12C"
  GI50: "> 100 µM (inactive)"
- compound: "COC(=O)/C=C1\\C(=O)C=C2[C@@H]3C[C@H]4C[C@H](CC[C@@]4(C)N21)C3(C)NC(C)=O (stereo not given in full)"
  targetSystem: "SN12C"
  GI50: "11.7 µM (inactive)"
- compound: "O=C(NC1CCN(Cc2ccccc2)CC1)c1ccccc1I"
  targetSystem: "SN12C"
  GI50: "62.7 µM (inactive)"
- compound: "Nc1ccc(S(=O)(=O)Nc2cnc3c(Cl)cccc3n2)cc1"
  targetSystem: "SN12C"
  GI50: "94.4 µM (inactive)"
- compound: "NC(CCC(=O)NC(CSSCCCCS(=O)O)C(=O)NCC(=O)O)C(=O)O (stereo not given)"
  targetSystem: "SN12C"
  GI50: "> 100 µM (inactive)"
- compound: "CC1CC(OP(=O)(OCc2ccccc2)OCc2ccccc2)[C@@H](OCc2ccccc2)C(OCc2ccccc2)C1OCc1ccccc1 (stereo not given in full)"
  targetSystem: "SN12C"
  GI50: "> 100 µM (inactive)"
- compound: "NS(=O)(=O)c1c(O)c2ccccc2oc1=O"
  targetSystem: "SN12C"
  GI50: "> 100 µM (inactive)"
- compound: "COc1cccc(/C=C/c2cc(OC)c(OC)c(OC)c2)c1"
  targetSystem: "SN12C"
  GI50: "52.2 µM (inactive)"
- compound: "OC1CCC(COC(c2ccccc2)(c2ccccc2)c2ccccc2)O1 (stereo not given)"
  targetSystem: "SN12C"
  GI50: "19.2 µM (inactive)"
- compound: "COCC(O)Cn1ccnc1[N+](=O)[O-] (stereo not given)"
  targetSystem: "SN12C"
  GI50: "> 100 µM (inactive)"
- compound: "COc1ccc(O[C@H](CO)C[C@@H]2COC(C)(C)O2)cc1"
  targetSystem: "SN12C"
  GI50: "> 100 µM (inactive)"
- compound: "NCCP(=O)(O)O"
  targetSystem: "SN12C"
  GI50: "> 100 µM (inactive)"
- compound: "CC(=O)NCc1nc(C#N)c(N)o1"
  targetSystem: "SN12C"
  GI50: "> 100 µM (inactive)"
- compound: "CCOC(=O)NC(Nc1cc(Cl)ccc1OC)(C(F)(F)F)C(F)(F)F"
  targetSystem: "SN12C"
  GI50: "> 100 µM (inactive)"
- compound: "CC(=O)Oc1c(N2CCCCC2)c(C(=O)c2ccccc2)c(O)c2ccn(N(C)C)c12"
  targetSystem: "SN12C"
  GI50: "18.5 µM (inactive)"
- compound: "COc1ccc2[nH]c3c(c2c1)[C@H](c1ccccc1)C[C@@H]1C(=O)N(c2ccccc2)C(=O)[C@H]31"
  targetSystem: "SN12C"
  GI50: "12.1 µM (inactive)"
- compound: "COc1ccc(C2C(Cl)C(=O)N2NC(=O)c2ccccc2O)cc1OC (stereo not given)"
  targetSystem: "SN12C"
  GI50: "> 100 µM (inactive)"
- compound: "CCOC(=O)c1nnsc1NC(=O)Nc1ccc(Cl)cc1"
  targetSystem: "SN12C"
  GI50: "35.2 µM (inactive)"
- compound: "Cc1ccc(NC(=O)CC2SC(=N)NC2=O)cc1C (stereo not given)"
  targetSystem: "SN12C"
  GI50: "> 100 µM (inactive)"
- compound: "O=C(CCC(=O)C1Cc2ccccc2C1=O)Nc1cccc(C(F)(F)F)c1 (stereo not given)"
  targetSystem: "SN12C"
  GI50: "> 100 µM (inactive)"
- compound: "NC(=O)C(=Cn1c(=S)[nH]c2ccc([N+](=O)[O-])cc21)C(N)=O"
  targetSystem: "SN12C"
  GI50: "> 100 µM (inactive)"
- compound: "Cc1nc(O)nc2nc3ccc(Cl)cc3c(NCCNCCO)c12"
  targetSystem: "SN12C"
  GI50: "7.18 µM (inactive)"
- compound: "C[N+]1=C(c2cccnc2/C=N/O)OCC1(C)C"
  targetSystem: "SN12C"
  GI50: "> 100 µM (inactive)"
- compound: "CC(C)[C@H](NC(=O)[C@H](C(C)C)N(Cc1ccccc1)Cc1ccccc1)C(=O)N(C)[C@H](C(=O)N1CCC[C@H]1C(=O)N(C)[C@H](C)C(=O)NCc1ccc(Cl)cc1)C(C)C (Bn2Val-V[NMeV]P[dNMeA]-{NH(4-Cl-benzyl)})"
  targetSystem: "SN12C"
  GI50: "2.58 µM (inactive)"
- compound: "COC(=O)c1ccccc1NC(=O)C(=O)Cc1nc2c3c(ccc2nc1O)C(=O)c1ccccc1C3=O"
  targetSystem: "SN12C"
  GI50: "29.6 µM (inactive)"
- compound: "O=C1SC(SCc2ccccc2)=NC12CC2c1ccccc1 (stereo not given)"
  targetSystem: "SN12C"
  GI50: "20 µM (inactive)"
